Assay: AUC (0 to infinity) in ICR mouse plasma at 100 mg/kg, po administered via gavage measured after 0.25 to 24 hrs by UPLC/MS analysis
Type: ADME, organism-based
Set-up: dose 100 mg/kg, time infinity, route oral
assay_endpoint: AUC(0-inf) (ng·h/mL)
Respond with the bare value in ng·h/mL.

Request: Value lookup for AUC(0-inf); key = Cc1ccc(-n2nc(C(=O)N3C[C@@H](C)N[C@@H](C)C3)nc2-c2ccc3c(c2)N(C2CCCC2)[C@H](C)C(=O)N3C)cc1
Result: 82400

###

Experiment: AUC (0 to t) in rat plasma at 3 mg/kg, iv
Assay type: ADME, organism-based
assay_endpoint: AUC(0-t) (ng·h/mL)
Dear colleague, please return just the value in ng·h/mL, with no unit written.

Request: Request the reported AUC(0-t) associated with Cc1ccc(-n2nc(C(=O)N3C[C@@H](C)N[C@@H](C)C3)nc2-c2ccc3c(c2)N(C2CCCC2)[C@H](C)C(=O)N3C)cc1
Result: 2010

###

Assay: AUC (0 to infinity) in rat plasma at 50 mg/kg, po
Format: ADME, organism-based
Parameters: dose 50 mg/kg, time infinity, route oral
assay_endpoint: AUC(0-inf) (ng·h/mL)
The reply should be a number in ng·h/mL, with the unit left off.

Request: Sample Cc1ccc(-n2nc(C(=O)N3C[C@@H](C)N[C@@H](C)C3)nc2-c2ccc3c(c2)N(C2CCCC2)[C@H](C)C(=O)N3C)cc1 — what was its AUC(0-inf)?
Result: 4310

###

Assay: Half life in dog liver microsomes
Type: ADME, Canis lupus familiaris, Microsome
assay_endpoint: half-life (min)
Report the value in min with no unit label.

Request: So what's the measured half-life for this one? Cc1ccc(-n2nc(C(=O)N3C[C@@H](C)N[C@@H](C)C3)nc2-c2ccc3c(c2)N(C2CCCC2)[C@H](C)C(=O)N3C)cc1
Result: 18

###

Test: Bioavailability in dog at 1 mg/kg, iv
Assay type: ADME, organism-based, Canis lupus familiaris
Conditions: in vivo
assay_endpoint: bioavailability (%)
Only the number, expressed in %, is required.

Request: Sample Cc1ccc(-n2nc(C(=O)N3C[C@@H](C)N[C@@H](C)C3)nc2-c2ccc3c(c2)N(C2CCCC2)[C@H](C)C(=O)N3C)cc1 — what was its bioavailability?
Result: 34.3

###

What Tmax was measured for each of the following?
Assay: Tmax in ICR mouse at 10 mg/kg, po administered via gavage measured after 0.25 to 24 hrs by UPLC/MS analysis
Format: ADME, organism-based
Settings: in vivo
Answer format: numeric, min implied, no suffix.

Request: Entry Cc1ccc(-n2nc(C(=O)N3C[C@@H](C)N[C@@H](C)C3)nc2-c2ccc3c(c2)N(C2CCCC2)[C@H](C)C(=O)N3C)cc1 has what Tmax?
Result: 66

Request: Could you tell me which Tmax is on file for Cc1ccc(-n2nc(C(=O)N3CCN(C)CC3)nc2-c2ccc3c(c2)N(C2CC2)C(C)C(=O)N3C)cc1 (stereo not given) ?
Result: 18

Request: Any idea what its Tmax is? The compound is Cc1ccc(-n2nc(C(=O)N3CCN(C)CC3)nc2-c2ccc3c(c2)N(C2CCCC2)[C@H](C)C(=O)N3C)cc1F
Result: 18

Request: Would you mind telling me what Tmax value was observed for Cc1ccc(-n2cnnc2-c2ccc3c(c2)N(C2CC2)C(C)C(=O)N3C)cc1 (stereo not given) ?
Result: 18

Request: Please look up its Tmax: Cc1ccc(-n2nc(C(=O)N3CCN(C)CC3)nc2-c2ccc3c(c2)N(C2CCCC2)[C@H](C)C(=O)N3C)cc1
Result: 18

###

Test: Half life in dog plasma at 3 mg/kg, po
Format: ADME, organism-based, Canis lupus familiaris
assay_endpoint: half-life (h)
Kindly answer with a numeric value in h, unit omitted.

Request: Which half-life is reported for this compound? Cc1ccc(-n2nc(C(=O)N3C[C@@H](C)N[C@@H](C)C3)nc2-c2ccc3c(c2)N(C2CCCC2)[C@H](C)C(=O)N3C)cc1
Result: 6.6

###

Target: Cytochrome P450 1A2 (Homo sapiens)
Sequence (P05177 whole entry): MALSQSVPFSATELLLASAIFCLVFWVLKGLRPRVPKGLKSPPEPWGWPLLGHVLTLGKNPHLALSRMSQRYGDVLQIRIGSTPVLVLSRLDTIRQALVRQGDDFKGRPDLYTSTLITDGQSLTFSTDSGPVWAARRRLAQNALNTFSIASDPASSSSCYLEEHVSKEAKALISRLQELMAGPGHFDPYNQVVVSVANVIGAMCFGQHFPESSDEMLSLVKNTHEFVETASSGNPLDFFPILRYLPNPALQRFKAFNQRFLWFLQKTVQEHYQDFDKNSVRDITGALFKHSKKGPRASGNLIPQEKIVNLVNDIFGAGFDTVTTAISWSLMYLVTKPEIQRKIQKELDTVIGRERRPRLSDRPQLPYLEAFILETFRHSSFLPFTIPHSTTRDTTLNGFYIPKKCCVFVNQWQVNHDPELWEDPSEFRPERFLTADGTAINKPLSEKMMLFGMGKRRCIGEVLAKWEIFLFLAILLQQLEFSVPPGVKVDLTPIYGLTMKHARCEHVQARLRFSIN
Experiment: Time-dependent inhibition of CYP1A2 in human liver microsomes at 10 uM using phenacetin as substrate preincubated up to 30 mins followed by NADPH generating system addition and measured after 10 mins
Assay type: ADME
assay_endpoint: TDI

Request: Using the record for Cc1ccc(-n2c(C)nnc2-c2ccc3c(c2)N(C2CCCC2)[C@H](C)C(=O)N3C)cc1 , report its TDI.
Result: Not Active

Request: What does the record list as TDI for Cc1ccc(-n2c(C)nnc2-c2ccc3c(c2)N(C2CC2)C(C)C(=O)N3C)cc1 (stereo unspecified) ?
Result: Not Active

Request: # lookup: TDI of Cc1ccc(-n2nc(C(=O)N3CCN(C)CC3)nc2-c2ccc3c(c2)N(C2CC2)C(C)C(=O)N3C)cc1 (stereo unspecified)
Result: 41 ×10⁻⁴ /min

Request: Find the recorded TDI belonging to Cc1ccc(-n2cnnc2-c2ccc3c(c2)N(C2CC2)C(C)C(=O)N3C)cc1 (stereo unspecified) and report it.
Result: Not Active

Request: I have this compound here, Cc1ccc(-n2nc(C(=O)N3CCN(C)CC3)nc2-c2ccc3c(c2)N(C2CCCC2)[C@H](C)C(=O)N3C)cc1 , and I need its recorded TDI.
Result: 51 ×10⁻⁴ /min

With those in mind, consider the next compound.
Request: For the compound Cc1ccc(-n2nc(C(=O)N3C[C@@H](C)N[C@@H](C)C3)nc2-c2ccc3c(c2)N(C2CCCC2)[C@H](C)C(=O)N3C)cc1 , what TDI is on record?
Result: Not Active

###

Assay: Cmax in ICR mouse plasma at 100 mg/kg, po administered via gavage measured after 0.25 to 24 hrs by UPLC/MS analysis
Assay type: ADME, organism-based
Set-up: dose 100 mg/kg, route oral
assay_endpoint: Cmax (µg/mL)
# output: bare number, implied unit µg/mL

Request: Can you look up the measured Cmax of Cc1ccc(-n2nc(C(=O)N3C[C@@H](C)N[C@@H](C)C3)nc2-c2ccc3c(c2)N(C2CCCC2)[C@H](C)C(=O)N3C)cc1 for me?
Result: 13.8

###

Assay: Tmax in rat plasma at 10 mg/kg, po
Type: ADME, organism-based
assay_endpoint: Tmax
Note: a bare number is incomplete; add the unit.

Request: Which measured Tmax value corresponds to Cc1ccc(-n2nc(C(=O)N3C[C@@H](C)N[C@@H](C)C3)nc2-c2ccc3c(c2)N(C2CCCC2)[C@H](C)C(=O)N3C)cc1 ?
Result: 2.3 h

###

Assay: Half life in ICR mouse brain at 50 mg/kg, po administered via gavage measured after 0.25 to 24 hrs by UPLC/MS analysis
Assay type: ADME, organism-based
assay_endpoint: half-life (min)
A number alone suffices; assume min.

Request: Entry under review: Cc1ccc(-n2nc(C(=O)N3C[C@@H](C)N[C@@H](C)C3)nc2-c2ccc3c(c2)N(C2CCCC2)[C@H](C)C(=O)N3C)cc1 . Reported half-life?
Result: 180

###

Test: Bioavailability in rat at 3 mg/kg, iv
Type: ADME, organism-based
Settings: in vivo
assay_endpoint: bioavailability (%)
Value expressed in %; do not type the unit.

Request: Bench note: what bioavailability did Cc1ccc(-n2nc(C(=O)N3C[C@@H](C)N[C@@H](C)C3)nc2-c2ccc3c(c2)N(C2CCCC2)[C@H](C)C(=O)N3C)cc1 show?
Result: 18.2

###

Experiment: AUC (0 to t) in rat brain at 50 mg/kg, po
Type: ADME, organism-based
assay_endpoint: AUC(0-t) (ng·h/mL)
The response must be a number in ng·h/mL with no trailing unit.

Request: Fill blank: measured AUC(0-t) of the compound Cc1ccc(-n2nc(C(=O)N3C[C@@H](C)N[C@@H](C)C3)nc2-c2ccc3c(c2)N(C2CCCC2)[C@H](C)C(=O)N3C)cc1 is ____.
Result: 331

###

Experiment: Half life in rat plasma at 3 mg/kg, iv
Format: ADME, organism-based
assay_endpoint: half-life (h)
Give your result in h as a bare value.

Request: Query: half-life; subject: Cc1ccc(-n2nc(C(=O)N3C[C@@H](C)N[C@@H](C)C3)nc2-c2ccc3c(c2)N(C2CCCC2)[C@H](C)C(=O)N3C)cc1
Result: 1.8

###

Assay: AUC (0 to t) in ICR mouse plasma at 50 mg/kg, po administered via gavage measured after 0.25 to 24 hrs by UPLC/MS analysis
Assay type: ADME, organism-based
Parameters: time lower 0.25 hr, dose 50 mg/kg, time upper 24 hr, route oral
assay_endpoint: AUC(0-t) (ng·h/mL)
A number alone suffices; assume ng·h/mL.

Request: Could you tell me which AUC(0-t) is on file for Cc1ccc(-n2nc(C(=O)N3C[C@@H](C)N[C@@H](C)C3)nc2-c2ccc3c(c2)N(C2CCCC2)[C@H](C)C(=O)N3C)cc1 ?
Result: 16700
